The values you see were collected from patent US7550469B2.

biological target: cloned human dopamine D3 receptors (Homo sapiens); construct: expressed in transfected cells; membrane homogenate; test: [N-Methyl-3H]Spiroperidol binding to cloned human dopamine D3 receptors (Protocol 1); conditions: Table 2; read-out: D3K1
pKi: −log10 of the molar value.
QUANTITY NAME: pKi

Solved entries:
- O=C(N[C@H](CO)CCCN1CCN(c2csc3cc(C(F)(F)F)ccc23)CC1)c1ccc2[nH]ccc2c1 [compound 815700]: 6.89
- O=C(N[C@H](CO)CCCN1CCN(c2csc3cc(C(F)(F)F)ccc23)CC1)c1ccc(-c2ccccc2)cc1 [compound 815694]: 6.71
- O=C(N[C@@H](CO)CCCN1CCN(c2csc3cc(C(F)(F)F)ccc23)CC1)c1ccc2[nH]ccc2c1 [compound 815676]: 6.65

[P] Cc1ccc2oc(C(=O)NCCCCN3CCCN(c4csc5cc(F)ccc45)CC3)cc2c1 [compound 827129]
[Q] O=C(NCCCCN1CCN(c2c(-c3ccccc3)sc3cc(F)ccc23)CC1)c1ccc(Br)cc1 [compound 815874]
[R] CC1=C(C(=O)NCCCCCN2CCN(c3csc4cc(C(F)(F)F)ccc34)CC2)Cc2ccccc21 [compound 826802]
[S] CC(=O)C1CC(CC(=O)NC/C=C\CN2CCN(c3csc4cc(C(F)(F)F)ccc34)CC2)C1(C)C (stereo not shown) [compound 827737]
### Prompt Provide the items ranked by increasing pKi. State the ranking by listing the labels in the requested order.
### Response Q, S, R, P

----------
molecular target: cloned human dopamine D3 receptors (Homo sapiens, UniProt P35462); construct: expressed in transfected cells; membrane homogenate; experiment: [N-Methyl-3H]Spiroperidol binding to cloned human dopamine D3 receptors (Protocol 1); settings: the 13th table, unit inferred; read-out: D3Ki
Sequence (P35462 whole entry): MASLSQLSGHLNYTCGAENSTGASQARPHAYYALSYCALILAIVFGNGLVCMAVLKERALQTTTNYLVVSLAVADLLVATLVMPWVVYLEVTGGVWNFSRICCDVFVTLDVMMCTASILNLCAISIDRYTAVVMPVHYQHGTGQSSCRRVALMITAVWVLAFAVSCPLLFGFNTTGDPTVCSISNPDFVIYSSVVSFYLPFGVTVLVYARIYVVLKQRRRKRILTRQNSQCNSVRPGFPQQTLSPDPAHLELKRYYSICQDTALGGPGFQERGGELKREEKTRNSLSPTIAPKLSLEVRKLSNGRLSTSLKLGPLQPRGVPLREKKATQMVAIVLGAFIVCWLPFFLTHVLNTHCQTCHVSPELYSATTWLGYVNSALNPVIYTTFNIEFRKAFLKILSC
QUANTITY NAME: Ki (nM)

Here are 5 compounds together with their reported answers.
• O=C(NCCCCN1CCCN(c2csc3cc(F)ccc23)CC1)c1ccco1 [S981843] = 0.066
• O=C(NCCCCN1CCCN(c2csc3cc(C(F)(F)F)ccc23)CC1)c1cccc(Cl)c1 [S980628] = 110
• O=C(NCCCCCN1CCCN(c2csc3cc(F)ccc23)CC1)c1ccc(OC(F)(F)F)cc1 [S9894488] = 23.8
• O=C(Cc1ccccc1Br)NCCCCN1CCCN(c2csc3cc(F)ccc23)CC1 [S982512] = 5.8
• O=C(NCCCCN1CCCN(c2csc3cc(C(F)(F)F)ccc23)CC1)c1ccc(-c2ccccc2)cc1 [S980641] = 29

[a] O=C(NCCCCN1CCCN(c2csc3cc(F)ccc23)CC1)c1cc2ccccc2o1 [822226G]
[b] O=C(NCCCCN1CCCN(c2csc3cc(F)ccc23)CC1)c1cc(C(F)(F)F)cc(C(F)(F)F)c1 [S981844]
### Prompt # query: argmin of Ki over a and b // respond with label for picked entry
### Response a

[1] O=C(NCCCCN1CCCN(c2csc3cc(C(F)(F)F)ccc23)CC1)c1ccc2ccccc2c1 [S980632]
[2] O=C(NCCCCN1CCCN(c2csc3cc(C(F)(F)F)ccc23)CC1)c1cccc2[nH]ccc12 [S980650]
[3] CC1(c2ccc(C(=O)NCCCCN3CCCN(c4csc5cc(F)ccc45)CC3)cc2)NC(=O)NC1=O (stereo not drawn) [S982513]
[4] COc1ccccc1C(=O)NCCCCN1CCCN(c2csc3cc(C(F)(F)F)ccc23)CC1 [S980634]
[5] O=C(NCCCCN1CCC(c2noc3ccsc23)CC1)c1ccc(Cl)cc1 [compound 815151]
### Prompt Sort ascending by Ki. Use the labels to give the requested order.
### Response 3, 4, 1, 2, 5

----------
biological target: cloned human dopamine D3 receptors (Homo sapiens, UniProt P35462); construct: expressed in transfected cells; membrane homogenate; test: [N-Methyl-3H]Spiroperidol binding to cloned human dopamine D3 receptors (Protocol 1); details: the 23rd table; read-out: D3 Ki
pKi: −log10 of the molar value.
QUANTITY NAME: pKi

[P] C[C@H]1CC[C@H](NC[C@@H]2C[C@H]2CN2CCC(c3noc4c(C(F)(F)F)cccc34)CC2)CC1
[Q] C[C@H]1CC[C@H](NC[C@@H]2C[C@H]2CN2CCN(c3csc4cc(C(F)(F)F)ccc34)CC2)CC1
### Prompt Which numeric pKi is bigger, that of P or that of Q ? Lab log: write the label of the selected item as the result.
### Response Q
(Q: 7.87, P: 7.47)

[I] CC(C)c1ccc(CNCC2CC2CN2CCN(c3csc4cc(C(F)(F)F)ccc34)CC2)cc1 (racemic)
[II] CC[C@H]1CC[C@H](NC[C@@H]2C[C@H]2CN2CCN(c3ccc(C)cc3C)CC2)CC1
[III] FC(F)(F)c1cccc2c(C3CCN(C[C@@H]4C[C@H]4CNCC45CC6CC(CC(C6)C4)C5)CC3)noc12
### Prompt # desc sort on pKi across 3 molecules Order the labels as requested and give them as your answer.
### Response II, III, I

[I] CC[C@H]1CC[C@H](NCC2(CCN3CCC(c4noc5ccsc45)CC3)CC2)CC1
[II] CC1CCCCN1CCCNC[C@@H]1C[C@H]1CN1CCN(c2csc3cc(C(F)(F)F)ccc23)CC1 (mixture of isomers)
### Prompt Determine, for I and II , which has the greater value of pKi. Pick one; state its label.
### Response II

[a] c1ccc(OCCNCC2CC2CN2CCC(c3noc4ccsc34)CC2)cc1 (racemic) [832296FH]
[b] CSCCCNC[C@@H]1C[C@H]1CN1CCN(c2csc3cc(C(F)(F)F)ccc23)CC1
### Prompt From the items above, decide which of a and b has the lower pKi reading. When you have decided, please share the label of that item.
### Response a
(a: 6.90, b: 7.72)

[1] Cc1nc(Cl)c(Cl)n1CCCNCC1CC1CN1CCN(c2csc3cc(C(F)(F)F)ccc23)CC1 (racemic)
[2] FC(F)(F)c1ccc2c(N3CCN(CC4CC4CN4CCC(N5CCCC5)CC4)CC3)csc2c1 (racemic)
[3] OC1CCC(NCC2CC2CN2CCN(c3csc4cc(C(F)(F)F)ccc34)CC2)CC1 (racemic) [832390FH]
[4] FC(F)(F)c1ccc2c(N3CCN(C[C@@H]4C[C@H]4CNCCCn4ccnc4)CC3)csc2c1
### Prompt Ascending sort, pKi. Answer with the labels in sequence, matching the requested order.
### Response 1, 2, 3, 4
(1: 7.01, 2: 7.34, 3: 7.66, 4: 8.58)

[P] COc1cccc2c(C3CCN(C[C@@H]4C[C@H]4CNCCC(C)(C)C)CC3)noc12
[Q] COc1ccc(CNCC2CC2CN2CCN(c3csc4cc(C(F)(F)F)ccc34)CC2)cc1 (racemic)
[R] FC(F)(F)Oc1cccc(CNCC2CC2CN2CCN(c3csc4cc(C(F)(F)F)ccc34)CC2)c1 (racemic)
[S] Clc1ccc(CN2CCN(CC3CC3CN3CCC(c4noc5ccsc45)CC3)CC2)cc1Cl (racemic) [832297GW]
### Prompt Put the items in order so that reported pKi rises from first to last. The response must list the labels following the requested ordering.
### Response S, P, Q, R

[P] CC[C@H]1CC[C@H](NC[C@@H]2C[C@H]2CN2CCN(c3ccccc3C)CC2)CC1
[Q] CCC1CCC(NCC2CC2CN2CCN(c3cc(C)ccc3C)CC2)CC1 (stereo not drawn)
[R] Cc1nc(Cl)c(Cl)n1CCCNC[C@@H]1C[C@H]1CN1CCN(c2csc3cc(C(F)(F)F)ccc23)CC1
### Prompt Hey, quick one: sort these by pKi, low to high? Answer by naming the labels in the order asked.
### Response Q, R, P
(Q: 7.14, R: 7.44, P: 7.92)

----------
molecular target: cloned human dopamine D3 receptors (Homo sapiens, UniProt P35462); construct: expressed in transfected cells; membrane homogenate; test: [N-Methyl-3H]Spiroperidol binding to cloned human dopamine D3 receptors (Protocol 1); conditions: Table 2; read-out: D3K1
QUANTITY NAME: Ki (nM)

- O=C(NCCCN1CCCN(c2csc3cc(F)ccc23)CC1)c1cccc(F)c1: 101

[P] O=C(NCC(CO)CCN1CCN(c2csc3cc(C(F)(F)F)ccc23)CC1)c1c(F)cc(F)cc1F (centres unmarked) [818923ES]
[Q] COc1ccccc1C(=O)NCCCN1CCCN(c2csc3cc(F)ccc23)CC1
### Prompt Of P versus Q , which is the one with smaller reported Ki? // respond with label for picked entry
### Response Q

[a] O=C(N[C@H](CO)CCCN1CCN(c2csc3cc(C(F)(F)F)ccc23)CC1)c1cc2ccccc2s1
[b] COc1cccc2oc(C(=O)NCCCCN3CCCN(c4csc5cc(F)ccc45)CC3)cc12
### Prompt Please choose the item with the lower Ki value from this pair: a and b Respond with the label that goes with your answer.
### Response b

[a] O=C(NCCCN1CCCN(c2csc3cc(F)ccc23)CC1)c1cccc2ccccc12
[b] O=C(NCCCCCN1CCCN(c2csc3cc(F)ccc23)CC1)c1cc(-c2ccco2)nc2ccccc12
### Prompt Name the one with the greater Ki value, either a or b as given. When you have decided, please share the label of that item.
### Response a
(a: 166 nM, b: 5.85 nM)
